system.under.test: KRas^G12R (Homo sapiens, UniProt P01116, G12R)
Construct: Biotinylated KRas (corresponding to amino acids 1-169, produced at Accelegan Inc.); biotin (biotinylated); purchased Accelegan Inc
Sequence (P01116 1-169 isoform P01116-2 G12R): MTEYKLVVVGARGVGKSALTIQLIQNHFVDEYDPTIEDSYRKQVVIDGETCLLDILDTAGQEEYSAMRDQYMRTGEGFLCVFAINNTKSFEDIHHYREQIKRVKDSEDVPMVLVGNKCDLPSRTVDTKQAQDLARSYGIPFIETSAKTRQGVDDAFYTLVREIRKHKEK
assay.details: KRas binding assay (TR-FRET tracer displacement), KRas G12R
Give IC50 for every item shown.
Give bare numbers, in nM.

{"molecule": "Cc1cc2[nH]nnc2c(-c2ncc3c(N4CCCC5(CNC(=O)N5)C4)nc(OCC45CCCN4CCC5)nc3c2F)c1C (stereo not drawn)", "metric.name": "IC50", "measured.number": 4270}

Dear colleague, could you send me IC50 for each of the items below? Thanks.
1. C#Cc1c(F)ccc2cc(O)cc(-c3ncc4c(N5CCC[C@@](C)(O)C5)nc(OC[C@@]56CCCN5[C@@H](CO)CC6)nc4c3F)c12
2. CCc1c(F)ccc2cc(O)cc(-c3ncc4c(N5CCn6ncc(C#N)c6C5)nc(OC[C@@]56CCCN5C[C@H](F)C6)nc4c3F)c12
3. CCc1c(F)ccc2cc(O)cc(-c3ncc4c(SCc5cc(C(=O)N(C)C)nn5C)nc(OC[C@@]56CCCN5C[C@H](F)C6)nc4c3F)c12
4. CCc1c(F)ccc2cc(O)cc(-c3ncc4c(N5C[C@@H]6[C@@H](CC(N)=O)NC(=O)[C@@H]6C5)nc(OC[C@@]56CCCN5C[C@H](F)C6)nc4c3F)c12
5. CCc1c(F)ccc2cc(O)cc(-c3ncc4c(N5CCC(N6C(=O)CCC6=O)C5)nc(OC[C@@]56CCCN5C[C@H](F)C6)nc4c3F)c12 (stereo partly drawn)
6. C[C@@]1(O)CCCN(c2nc(OCC34CCCN3CCC4)nc3c(F)c(-c4ccc(F)c5sc(N)c(C#N)c45)ncc23)C1
7. CCc1c(F)ccc2cc(O)cc(-c3ncc4c(N5CC6CCC(CO)(C5)C6(F)F)nc(OC[C@@]56CCCN5C[C@H](F)C6)nc4c3F)c12 (stereo partly drawn)

Reply text:
1: 5; 2: 282; 3: 16; 4: 540; 5: 421; 6: 132; 7: 20

// for each molecule below, give its IC50
1. CCc1c(F)ccc2cc(O)cc(-c3ncc4c(N5CC6CCC(C5)C6CC(=O)N(C)C)nc(OC[C@@]56CCCN5C[C@H](F)C6)nc4c3F)c12 (stereo partly drawn)
2. C#Cc1c(F)ccc2cc(O)cc(-c3ncc4c(N5CCC[C@@](C)(O)C5)nc(OC[C@]56CCCN5[C@H](COC(=O)N(C)C)CC6)nc4c3F)c12
3. Oc1cc(Cl)c(C2CC2)c(-c2ncc3c(N4CCC[C@]5(C4)C[C@@H](O)C5)nc(OCC45CCCN4CCC5)nc3c2F)c1

Reply text:
68
2
20

For every item in the list below, what is its measured IC50?
1. CCc1c(F)ccc2cc(O)cc(-c3ncc4c(N5CCCc6ncccc6C5)nc(OC[C@@]56CCCN5C[C@H](F)C6)nc4c3F)c12
2. CCc1c(F)ccc2cc(O)cc(-c3ncc4c(N5CCC(Cn6cccn6)C5)nc(OC[C@@]56CCCN5C[C@H](F)C6)nc4c3F)c12 (stereo partly drawn)
3. Cc1cc2[nH]ncc2c(-c2ncc3c(N4CC5CC(O)C(C5)C4)nc(OCC45CCCN4CCC5)nc3c2F)c1C (stereo not drawn)
4. CCc1c(F)ccc2cc(O)cc(-c3ncc4c(NCC5CC(CO)NC5=O)nc(OC[C@@]56CCCN5C[C@H](F)C6)nc4c3F)c12 (stereo partly drawn)

Reply text:
1. 3
2. 74
3. 441
4. 27

Dear colleague, could you please provide IC50 for the molecules listed below?
1. O=C1NCC2(CCCN(c3nc(OC[C@@]45CCCN4C[C@H](F)C5)nc4c(F)c(-c5c6ccccc6cc6[nH]ncc56)ncc34)C2)N1 (stereo partly drawn)
2. CCc1c(F)ccc2cc(O)cc(-c3ncc4c(N5CCC[C@@](C)(O)C5)nc(N5CC(C)(N)C5)nc4c3F)c12

Reply text:
1. 170
2. 91
